B1: library; numbered along this chain (parent)
chain: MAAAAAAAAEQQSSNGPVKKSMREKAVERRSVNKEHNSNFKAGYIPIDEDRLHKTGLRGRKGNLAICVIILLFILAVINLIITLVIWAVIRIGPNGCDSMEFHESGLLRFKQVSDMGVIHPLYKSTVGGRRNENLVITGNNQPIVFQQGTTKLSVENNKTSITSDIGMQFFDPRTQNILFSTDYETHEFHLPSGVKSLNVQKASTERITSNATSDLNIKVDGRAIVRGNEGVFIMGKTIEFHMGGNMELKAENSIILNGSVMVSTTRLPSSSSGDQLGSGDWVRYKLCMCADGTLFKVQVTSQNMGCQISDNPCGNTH

Variants of: B1
Assay: SGCB cell-surface expression functional score (HA stain, bin4 vs bin1, normalised to synonymous) (log10 ratio); higher = more cell-surface SGCB (functional)
experimental.endpoint: SGCB cell-surface expression functional score (log10)

Y123F; 0.2
E252Y; 1.05
I178E; -2.31
N253C; 0.55
N199W; 1.05
A26L; -0.05
C97I; 0.31
Q12P; 0.06
Q299V; 0.01
V127R; -0.96
S270L; 0.64
Y184H; -0.69
V220P; 0.3
G139C; -0.65
G274A; -0.37
M22W; 0.08
T317Q; 0.03
A42P; 0.02
R130H; 0.08
I218C; -0.48
L107M; 0.24
V68S; 0.36
S214C; -0.08
K19M; 0.02
F180N; -2.28
G306Y; -1.16
I166L; -0.38
T301F; -0.72
F40L; -0.13
S114R; -1.39
T294R; -0.13
N229V; 0.87
G129E; -0.9
P269M; -0.48
E248L; 0.48
Q303Y; -0.3
M116C; -1.02
V77A; -0.12
M289E; 0.05
V77K; -0.21
D50H; 0.24
A4L; 0.45
I90W; -0.2
S270D; 0.32

Attribution: the supplement of paper PMC10266784
